Each entry below carries its reported log10 of Kd.
# Target Or System: HLA-A*02:03
# Protocol Description: IEDB peptide-MHC binding, purified MHC/competitive/radioactivity; filed as Kd, often an IC50 or EC50 that approximates it; bounds were set here for any values at or beyond the usual limits of such assays
# Experimental Context: source organism: Vaccinia virus WR
// units: nM (pre-log); metric: Kd; scale: log10

Previously resolved entries follow.
{"columns": ["Residue String", "log10 of Kd"],
 "data": [
  ["VIIMAINVFT", 2.91],
  ["EMVEYLENQL", 2.32],
  ["AILHNIYRL", 2.91],
  ["FVATFRDMLL", 1.25],
  ["NVSRVVECLT", 4.16],
  ["SIVCIVAAV", 0.45]
]}

**Query** Need log10 of Kd of YVGDTSMMVI , thanks.
**Result** 2.34

**Query** Next sequence up: KVTVPTNDHI
**Result** 3.09

**Query** Next sequence up: DVQRTRCKYV
**Result** 3.81

**Query** Next sequence up: IMRNFLRSIA
**Result** 2.09

**Query** Next sequence up: TIAHINTLI
**Result** 1.30
